Biological target: PI 3-kinase beta (Homo sapiens, UniProt P42338)
Sequence (P42338 whole entry, one chain of several): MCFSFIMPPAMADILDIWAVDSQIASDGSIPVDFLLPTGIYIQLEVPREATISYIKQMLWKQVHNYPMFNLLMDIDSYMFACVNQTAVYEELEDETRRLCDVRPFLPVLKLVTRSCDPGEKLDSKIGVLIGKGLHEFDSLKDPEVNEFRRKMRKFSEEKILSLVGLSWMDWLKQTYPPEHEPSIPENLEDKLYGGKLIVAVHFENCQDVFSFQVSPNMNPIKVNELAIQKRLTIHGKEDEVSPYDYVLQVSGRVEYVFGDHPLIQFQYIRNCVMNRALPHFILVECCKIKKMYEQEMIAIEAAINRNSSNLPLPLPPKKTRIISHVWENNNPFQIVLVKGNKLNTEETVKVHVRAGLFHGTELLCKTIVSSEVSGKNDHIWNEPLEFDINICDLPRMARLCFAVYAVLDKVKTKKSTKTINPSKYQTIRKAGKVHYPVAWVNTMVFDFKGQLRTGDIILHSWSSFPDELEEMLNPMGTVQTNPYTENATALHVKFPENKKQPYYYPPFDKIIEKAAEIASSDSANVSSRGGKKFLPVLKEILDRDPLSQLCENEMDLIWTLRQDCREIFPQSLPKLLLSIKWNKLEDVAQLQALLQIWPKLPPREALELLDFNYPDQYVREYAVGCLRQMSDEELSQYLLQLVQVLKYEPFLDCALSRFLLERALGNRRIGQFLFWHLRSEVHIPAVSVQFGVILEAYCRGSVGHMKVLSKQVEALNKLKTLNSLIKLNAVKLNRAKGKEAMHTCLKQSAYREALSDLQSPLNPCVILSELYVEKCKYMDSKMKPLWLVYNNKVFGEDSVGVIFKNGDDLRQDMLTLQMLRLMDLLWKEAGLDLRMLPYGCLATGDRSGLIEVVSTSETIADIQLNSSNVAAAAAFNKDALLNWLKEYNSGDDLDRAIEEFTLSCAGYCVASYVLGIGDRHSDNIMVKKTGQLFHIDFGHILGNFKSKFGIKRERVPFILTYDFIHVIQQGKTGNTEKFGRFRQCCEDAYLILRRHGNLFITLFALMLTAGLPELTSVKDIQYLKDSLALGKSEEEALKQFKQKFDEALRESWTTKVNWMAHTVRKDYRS
Test: Kinase Glo Luminescent Kinase Assay (Kglo), assay B
Format: biochemical
Settings: read-out: Assay B PI3Kβ IC50
reported property: IC50 (µM)
Answer in µM, number only, no unit symbol.

# example entries with known answers
[
  {
    "compound string": "Cc1ncc(-c2nc(-c3cc(S(=O)(=O)NC4CCC(F)(F)CC4)ccc3C)cnc2N)s1",
    "value measured": 0.12
  },
  {
    "compound string": "Cc1cc(-c2nc(-c3cc(S(=O)(=O)N[C@H]4CC[C@H](O)CC4)ccc3C)cnc2N)on1",
    "value measured": 3.24
  }
]

As a next step, examine the molecule that follows.
Ask: Consider the molecule "Cc1ccc(S(=O)(=O)NCC2(O)CCC2)cc1-c1cnc(N)c(-n2cncn2)n1" . State its measured IC50.
Result: 0.81

---

Target: PI 3-kinase delta (Homo sapiens, UniProt O00329)
Sequence (O00329 whole entry): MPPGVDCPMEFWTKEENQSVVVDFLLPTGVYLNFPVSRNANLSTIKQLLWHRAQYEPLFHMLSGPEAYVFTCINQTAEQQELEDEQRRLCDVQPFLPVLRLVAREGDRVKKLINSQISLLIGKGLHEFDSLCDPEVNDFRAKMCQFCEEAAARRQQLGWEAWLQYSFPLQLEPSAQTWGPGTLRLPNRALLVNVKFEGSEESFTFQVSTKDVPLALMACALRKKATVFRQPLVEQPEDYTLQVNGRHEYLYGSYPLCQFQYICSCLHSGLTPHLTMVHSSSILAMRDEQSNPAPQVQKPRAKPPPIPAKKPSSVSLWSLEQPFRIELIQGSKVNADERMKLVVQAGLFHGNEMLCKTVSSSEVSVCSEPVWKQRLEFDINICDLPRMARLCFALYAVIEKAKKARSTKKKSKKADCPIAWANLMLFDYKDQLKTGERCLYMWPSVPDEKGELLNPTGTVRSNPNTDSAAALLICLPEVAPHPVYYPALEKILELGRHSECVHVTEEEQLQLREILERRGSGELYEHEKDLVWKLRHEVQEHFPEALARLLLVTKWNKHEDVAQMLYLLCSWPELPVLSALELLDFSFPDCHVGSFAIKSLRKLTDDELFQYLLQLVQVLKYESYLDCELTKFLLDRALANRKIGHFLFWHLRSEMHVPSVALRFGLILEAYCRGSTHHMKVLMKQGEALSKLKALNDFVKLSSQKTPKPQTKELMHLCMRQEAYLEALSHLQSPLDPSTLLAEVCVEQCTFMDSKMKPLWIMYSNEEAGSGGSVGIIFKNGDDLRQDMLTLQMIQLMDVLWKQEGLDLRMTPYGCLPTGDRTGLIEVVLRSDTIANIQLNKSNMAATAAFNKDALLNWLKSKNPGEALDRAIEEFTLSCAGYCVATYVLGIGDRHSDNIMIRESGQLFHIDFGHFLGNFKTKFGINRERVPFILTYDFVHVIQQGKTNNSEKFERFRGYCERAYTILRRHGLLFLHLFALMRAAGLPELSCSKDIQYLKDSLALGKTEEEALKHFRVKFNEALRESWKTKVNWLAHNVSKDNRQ
Sequence (P27986 461-568 partner): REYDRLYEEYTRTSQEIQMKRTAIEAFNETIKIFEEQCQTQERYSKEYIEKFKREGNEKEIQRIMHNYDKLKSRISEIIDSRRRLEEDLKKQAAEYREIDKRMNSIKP
Assay: TR-FRET Adapta assay, assay F
Settings: read-out: Assay F PI3Kδ IC50
The label is MET for IC50 below 200 nM and NOT MET for IC50 equal to or exceeding 200 nM.

[
  {
    "compound": "CC[C@@H](CO)NS(=O)(=O)c1ccc(C)c(-c2cnc(N)c(-c3ccnc(C)c3)n2)c1",
    "cat": "NOT MET"
  }
]

Ask: Answer whether the compound "Cc1ccc(S(=O)(=O)NCCC(C)(C)O)cc1-c1cnc(N)c(-c2cnn(C)c2C)n1" has IC50 strictly less than 200 nM
Result: NOT MET

Ask: Dear reviewer, please state whether "Cc1ccc(S(=O)(=O)NC[C@@](C)(O)C(F)(F)F)cc1-c1cnc(N)c(-n2cncn2)n1" has IC50 strictly beneath 200 nM.
Result: NOT MET

Ask: Please state whether IC50 is below 200 nM for "Cc1ccc(S(=O)(=O)NCC2(O)CC2)cc1-c1cnc(N)c(-n2cncn2)n1"
Result: NOT MET

Ask: # strict comparison: is reported IC50 < 200 nM? input = Cc1ncc(-c2nc(-c3cc(S(=O)(=O)NC4CC(O)C4)ccc3C)cnc2N)s1 (mixture of isomers)
Result: NOT MET

Ask: Does this compound meet the criterion IC50 < 200 nM? "Cc1ccc(S(=O)(=O)NCC(N)=O)cc1-c1cnc(N)c(-n2cncn2)n1"
Result: NOT MET

---

Reported pIC50 is given for each of the following compounds.
Target: PI 3-kinase beta (Homo sapiens, UniProt P42338)
Test: Kinase Glo Luminescent Kinase Assay (Kglo), assay B
Type: biochemical
Settings: read-out: Assay B PI3Kβ IC50
Kindly note that pIC50 refers to -log10 of the concentration in mol/L and answer with the value alone.

[
  {
    "compound": "Cc1ccc(S(=O)(=O)NC[C@@H]2CCOC2)cc1-c1cnc(N)c(-n2cncn2)n1",
    "system name": "PI 3-kinase beta (Homo sapiens, UniProt P42338)",
    "pIC50": 5.70
  },
  {
    "compound": "Cc1ccc(S(=O)(=O)NCCC(C)(C)O)cc1-c1cnc(N)c(-c2cscn2)n1",
    "system name": "PI 3-kinase beta (Homo sapiens, UniProt P42338)",
    "pIC50": 6.59
  },
  {
    "compound": "Cc1ncc(-c2nc(-c3cc(S(=O)(=O)N[C@H]4C[C@H](O)C4)ccc3C)cnc2N)s1 [Example 43b]",
    "system name": "PI 3-kinase beta (Homo sapiens, UniProt P42338)",
    "pIC50": 5.82
  },
  {
    "compound": "Cc1ncc(-c2nc(-c3cc(S(=O)(=O)NCC4(O)CCOCC4)ccc3C)cnc2N)s1",
    "system name": "PI 3-kinase beta (Homo sapiens, UniProt P42338)",
    "pIC50": 6.47
  },
  {
    "compound": "Cc1cc(Cl)c(S(=O)(=O)NCC(C)(C)O)cc1-c1cnc(N)c(-n2cncn2)n1",
    "system name": "PI 3-kinase beta (Homo sapiens, UniProt P42338)",
    "pIC50": 7.00
  },
  {
    "compound": "Cc1ccc(S(=O)(=O)NC2CCOC2=O)cc1-c1cnc(N)c(-n2cncn2)n1 (centres unmarked)",
    "system name": "PI 3-kinase beta (Homo sapiens, UniProt P42338)",
    "pIC50": 5.28
  },
  {
    "compound": "Cc1ccc(S(=O)(=O)NC[C@@H]2COCCN2)cc1-c1cnc(N)c(-c2cn(C)nc2C)n1",
    "system name": "PI 3-kinase beta (Homo sapiens, UniProt P42338)",
    "pIC50": 5.11
  },
  {
    "compound": "Cc1ccc(S(=O)(=O)NCC(N)=O)cc1-c1cnc(N)c(-n2cncn2)n1",
    "system name": "PI 3-kinase beta (Homo sapiens, UniProt P42338)",
    "pIC50": 5.11
  }
]

Ask: Indicate the recorded pIC50 value for this compound: "CCCn1cc(-c2nc(-c3cc(S(=O)(=O)NCCC(C)(C)O)ccc3C)cnc2N)cn1"
Result: 5.24

Ask: Please indicate pIC50 recorded for Cc1ccc(S(=O)(=O)NOC2CCOC2)cc1-c1cnc(N)c(-n2cncn2)n1 (centres unmarked)
Result: 5.65

Ask: For the compound Cc1ncc(-c2nc(-c3cc(S(=O)(=O)NCC4CCCCO4)ccc3C)cnc2N)s1 (centres unmarked) , give its measured pIC50 value.
Result: 6.06

Ask: Annotate the compound "Cc1ccc(S(=O)(=O)NCC2(CO)CCCC2)cc1-c1cnc(N)c(-n2cncn2)n1" with its measured pIC50.
Result: 6.19

Ask: Let me know recorded pIC50 for "COCCCNS(=O)(=O)c1ccc(C)c(-c2cnc(N)c(-n3cncn3)n2)c1" , thanks.
Result: 5.04

Data credit: patent US10004732B2
